Assay: Whole blood PK and whole blood/plasma partitioning after a single 1-h IV infusion of [^14C]-pevonedistat 25 mg/m^2 (part A)
Assay type: in vivo, human
Conditions: human; whole blood; single 1-hr IV infusion 25 mg/m^2; geometric mean (CV); N = 7
property name: AUC(0-t) (ng·h/mL)
One number for each entry, in ng·h/mL.

Prompt: I'd like to know its AUC(0-t). The compound in question is `NS(=O)(=O)OC[C@@H]1C[C@@H](n2ccc3c(N[C@H]4CCc5ccccc54)ncnc32)C[C@@H]1O`
Completion: 58500

* * *

Test: Whole blood PK and whole blood/plasma partitioning after a single 1-h IV infusion of [^14C]-pevonedistat 25 mg/m^2 (part A)
Format: in vivo, human
Conditions: human; whole blood; single 1-hr IV infusion 25 mg/m^2; geometric mean (CV); N = 7; read-out: Vss
property name: Vd

Prompt: I'd like to know its Vd. The compound in question is NS(=O)(=O)OC[C@@H]1C[C@@H](n2ccc3c(N[C@H]4CCc5ccccc54)ncnc32)C[C@@H]1O [Pevonedistat]
Completion: 9.1 L
